details: in 2,2,4-trimethylpentane, 303 K
assay_readout: solubility (mole fraction)
Number, no unit, nothing else.

-- ask What does the record list as solubility (mole fraction) for c1ccc2c(c1)ccc1ccccc12 ?
-- reply 0.036

---

conditions: in 2,2,4-trimethylpentane, 293 K
assay_readout: solubility (mole fraction)
Form rule: numeric answer, no unit written next to it.

-- ask So what does the record say about solubility (mole fraction) for c1ccc2c(c1)ccc1ccccc12 ?
-- reply 0.019

---

settings: in toluene, 293 K
assay_readout: solubility (mole fraction)

-- ask Which solubility (mole fraction) value belongs to c1ccc2c(c1)ccc1ccccc12 ?
-- reply 0.461

---

settings: in 2,2,4-trimethylpentane, 313 K
assay_readout: solubility (mole fraction)
No unit in the answer, please; the number alone is enough.

-- ask Recorded solubility (mole fraction) for c1ccc2c(c1)ccc1ccccc12 , please?
-- reply 0.0874
